As an illustration, consider measured pKi for compounds on Cannabinoid receptor 1 (Homo sapiens, UniProt P21554).
Sequence (P21554 whole entry): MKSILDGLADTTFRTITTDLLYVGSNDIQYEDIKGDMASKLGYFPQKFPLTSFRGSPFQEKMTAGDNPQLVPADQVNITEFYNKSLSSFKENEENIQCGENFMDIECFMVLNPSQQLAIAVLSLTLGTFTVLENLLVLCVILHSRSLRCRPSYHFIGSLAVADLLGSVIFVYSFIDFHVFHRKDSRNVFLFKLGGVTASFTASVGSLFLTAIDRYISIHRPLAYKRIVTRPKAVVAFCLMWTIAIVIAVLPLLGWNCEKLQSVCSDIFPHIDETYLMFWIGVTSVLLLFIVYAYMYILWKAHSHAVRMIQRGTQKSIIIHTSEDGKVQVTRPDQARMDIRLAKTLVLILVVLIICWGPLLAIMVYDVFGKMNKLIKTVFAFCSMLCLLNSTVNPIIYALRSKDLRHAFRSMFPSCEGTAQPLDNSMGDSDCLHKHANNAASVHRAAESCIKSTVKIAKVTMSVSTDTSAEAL
pKi: −log10 of the molar value.

-- ask Suppose we examine the compound `COc1cccc2c(=O)c(C(=O)NC34CC5CC(CC(C5)C3)C4)cn(CCOCC[18F])c12` ; what pKi value has been reported?
-- reply < 5.00

-- ask Request: `CCCc1sc(NC(=O)C23CC4CC(CC(C4)C2)C3)c(C(=O)O[11CH3])c1C`
-- reply 5.96

-- ask Request: `CCOCCn1cc(C(=O)NC23CC4CC(CC(C4)C2)C3)c(=O)c2cccc(O[11CH3])c21`
-- reply < 5.00

Attribution: ChEMBL document CHEMBL4028847
